Entries and their IC50
# Target: Dop (Mycolicibacterium smegmatis)
# Sequence (A0QZ49 1-498): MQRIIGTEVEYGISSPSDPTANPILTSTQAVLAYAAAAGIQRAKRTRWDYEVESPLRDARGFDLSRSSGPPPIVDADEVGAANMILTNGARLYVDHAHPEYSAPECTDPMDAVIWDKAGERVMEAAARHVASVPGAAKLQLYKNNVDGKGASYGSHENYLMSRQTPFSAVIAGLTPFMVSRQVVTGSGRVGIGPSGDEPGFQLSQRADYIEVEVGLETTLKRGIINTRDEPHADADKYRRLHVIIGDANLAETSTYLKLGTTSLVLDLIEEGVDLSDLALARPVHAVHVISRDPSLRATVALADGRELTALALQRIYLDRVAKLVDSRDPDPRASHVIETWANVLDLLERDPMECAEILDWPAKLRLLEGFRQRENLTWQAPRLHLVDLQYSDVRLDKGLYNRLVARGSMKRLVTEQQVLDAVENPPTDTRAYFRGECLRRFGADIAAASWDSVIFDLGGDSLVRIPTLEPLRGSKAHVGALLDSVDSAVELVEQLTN
Number only, in µM; omit the unit.

Sample records with IC50:
# Molecule, Observable, Test Result
rows = [
    ("COc1cc(/C=C(\\C#N)C(=O)c2ccc(O)c(O)c2)cc(Br)c1O [Compound 10i]", "IC50", 2.7),
    ("COc1cc(/C=C(\\C#N)C(O)c2ccccc2)cc(I)c1O (centres unmarked)", "IC50", 57),
    ("COc1cc(/C=C(\\C#N)C(=O)c2ccccc2)cc(I)c1O", "IC50", 5.4),
    ("COc1cc(/C=C(\\C#N)C(=O)c2ccc(O)c(O)c2)cc([N+](=O)[O-])c1O [Compound 10b]", "IC50", 4.1),
    ("N#C/C(=C\\c1cc(O)c(O)c(I)c1)C(=O)c1ccc(O)c(O)c1 [Compound 10k]", "IC50", 0.29),
]

Report value only: IC50, Dop (Mycolicibacterium smegmatis), COc1cc(/C=C/C(=O)c2ccccc2)cc(I)c1O
29
